target: human cGAS (residues 161-522) (Homo sapiens, UniProt Q8N884); construct: Recombinantly expressed purified human cGAS (residues 161-522) was used at 25nM; assay: Malachite Green assay to measure cGAS activity (coupled enzymatic assay, phosphate detection); conditions: recombinant purified human cGAS 25 nM; 80 μM ATP, 80 μM GTP, 100 nM ISD; 4 hour at RT; absorbance 620 nm
Sequence (Q8N884 161-522): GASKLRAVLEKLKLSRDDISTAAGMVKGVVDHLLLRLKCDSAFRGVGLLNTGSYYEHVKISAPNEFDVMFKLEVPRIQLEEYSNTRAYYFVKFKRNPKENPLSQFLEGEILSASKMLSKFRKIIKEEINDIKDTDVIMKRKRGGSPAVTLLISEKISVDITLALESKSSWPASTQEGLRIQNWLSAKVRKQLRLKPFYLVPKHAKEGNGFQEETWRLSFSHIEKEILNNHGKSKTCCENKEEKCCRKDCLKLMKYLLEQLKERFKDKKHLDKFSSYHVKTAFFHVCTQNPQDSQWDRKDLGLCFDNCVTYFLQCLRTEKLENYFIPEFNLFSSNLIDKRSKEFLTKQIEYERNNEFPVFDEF

| Compound Structure String | IC50 [µM] |
| --- | --- |
| Cc1ccc(-c2cc(C(=O)O)c3cn(Cc4nc(C)c(C)o4)nc3c2)c(Cl)c1 | 2.74 |
| Cc1ccc(-c2cc(C(=O)O)c3cn(Cc4cccc(Cl)c4)nc3c2)c(Cl)c1 | 3.18 |
| Cc1ccc(-c2cc(C(=O)O)c3cn(Cc4ccccn4)nc3c2)c(Cl)c1 | 2.4 |
| Cc1ccc(-c2cc(C(=O)O)c3cn(Cc4nc(C5CC5)no4)nc3c2)c(Cl)c1 | 2.21 |
| Cc1ccc(-c2cc(C(=O)O)c3cn[nH]c3c2)c(Cl)c1 | 4.46 |
| Cc1ccc(-c2cc(C(=O)O)c3cn(CCN4CCN(C)CC4)nc3c2)c(Cl)c1 | 1.92 |
| Cc1ccc(-c2cc(C(=O)O)c3cn(Cc4ccccc4Cl)nc3c2)c(Cl)c1 | 2.2 |
| Cc1ccc(-c2cc(C(=O)O)c3cn(Cc4ccc(Cl)cc4)nc3c2)c(Cl)c1 | 2.76 |
| Cc1ccc(-c2cc(C(=O)O)c3cn(Cc4ccccc4)nc3c2)c(Cl)c1 | 1.37 |
| Cc1cc(Cl)c(-c2cc(C(=O)O)c3cn[nH]c3c2)cc1F | 4.59 |
| Cc1ccc(-c2cc(C(=O)O)c3cn(Cc4cccnc4)nc3c2)c(Cl)c1 | 2.93 |
| Cc1ccc(-c2cc(C(=O)O)c3cn(CC(F)(F)F)nc3c2)c(Cl)c1 | 1.56 |
| Cc1ccc(-c2cc(C(=O)O)c3cn(CCc4ccccc4)nc3c2)c(Cl)c1 | 2.35 |
